Tested on: wildtype Wnt pathway
ASSAY NAME: HEK293 TOP reporter assay, wildtype Wnt pathway stimulated with Wnt-3a
Assay type: cell-based, human
SETTINGS: Homo sapiens, HEK293, 16 h; read-out: HEK TOP OncoFlash IC50
pIC50: −log10 of the molar value.
METRIC: pIC50

>  <MOL SMILES>
COc1ccc(C(=O)Nc2ccc(-c3ccccc3)nc2)cc1NC(=O)C1(N2CCOCC2)CC1

>  <ASSAY VALUE>
7.82

$$$$
>  <MOL SMILES>
Nc1ccc(-c2ccc(NC(=O)c3ccc(OC(F)(F)F)c(NC(=O)CN4CCOCC4)c3)cn2)cc1

>  <ASSAY VALUE>
7.44

$$$$
>  <MOL SMILES>
CN1CCN(CC(=O)Nc2cc(C(=O)Nc3nnc(-c4ccccc4)s3)ccc2OC(F)(F)F)CC1

>  <ASSAY VALUE>
6.89

$$$$
>  <MOL SMILES>
COc1ccc(C(=O)Nc2ccc(-c3ccccc3F)nc2)cc1NC(=O)CN1CCOCC1

>  <ASSAY VALUE>
5.48

$$$$
>  <MOL SMILES>
NC(=O)c1ccc(C(=O)Nc2nnc(-c3ccccc3)s2)cc1NC(=O)C1(N2CCOCC2)CC1

>  <ASSAY VALUE>
6.72

$$$$
>  <MOL SMILES>
COC(=O)c1ccc(C(=O)Nc2nnc(-c3ccccc3)s2)cc1NC(=O)CN1CCN(C)CC1

>  <ASSAY VALUE>
6.52

$$$$
>  <MOL SMILES>
O=C(CN1CCOCC1)Nc1cc(C(=O)Nc2ccc(-c3ccccc3)nc2)ccc1OC(F)(F)F

>  <ASSAY VALUE>
7.32

$$$$
>  <MOL SMILES>
CS(=O)(=O)Cc1ccc(C(=O)Nc2nnc(-c3ccccc3)s2)cc1NC(=O)C1(N2CCOCC2)CC1

>  <ASSAY VALUE>
7.05

$$$$
>  <MOL SMILES>
O=C(CN1CCOCC1)Nc1cc(NC(=O)c2ccc(-c3ccccc3F)nc2)ccc1OC(F)(F)F

>  <ASSAY VALUE>
5.85

$$$$
>  <MOL SMILES>
COc1ccc(C(=O)Nc2ccc(-c3ccccc3F)nc2)cc1NC(=O)C1(N2CCOCC2)CC1

>  <ASSAY VALUE>
6.82

$$$$
>  <MOL SMILES>
CN1CCN(CC(=O)Nc2cc(C(=O)Nc3nnc(-c4ccccc4)s3)ccc2OC(F)F)CC1

>  <ASSAY VALUE>
6.28

$$$$
>  <MOL SMILES>
CC(C)(C)c1ccc(NC(=O)c2ccc(-c3ccccc3)s2)cc1NC(=O)CN1CCOCC1

>  <ASSAY VALUE>
6.00

$$$$

###

IC50 for assorted molecules
System: HCT116 FOP control reporter cell line
ASSAY NAME: HCT116 FOPFlash control reporter assay (FOP control vector, non-functional TCF elements)
Assay type: cell-based
SETTINGS: Homo sapiens, HCT-116, 36 h, HCT116 FOP control reporter cells, 36 hours incubation, luciferase expression

>  <MOLECULE>
Cc1cccc(-c2nnc(NC(=O)c3ccc(OC(F)(F)F)c(NC(=O)CN4CCN(C)CC4)c3)s2)c1 [Example 145]

>  <IC50>
≥ 50 µM

$$$$
>  <MOLECULE>
CN1CCN(CC(=O)Nc2cc(C(=O)Nc3nnc(-c4cccc(F)c4)s3)ccc2OC(F)(F)F)CC1 [Example 152]

>  <IC50>
≥ 50 µM

$$$$
>  <MOLECULE>
O=C(CN1C[C@@H]2C[C@H]1CO2)Nc1cc(NC(=O)c2ccc(-c3cc(F)cc(F)c3)nc2)ccc1OC(F)(F)F [Example 184]

>  <IC50>
11 µM

$$$$
>  <MOLECULE>
CN1CCN(CC(=O)Nc2cc(C(=O)Nc3nnc(-c4ccccc4C(F)(F)F)s3)ccc2OC(F)(F)F)CC1 [Example 270]

>  <IC50>
≥ 50 µM

$$$$
>  <MOLECULE>
CC(C)(C)c1ccc(NC(=O)c2ccc(-c3ccccc3)nc2)cc1NC(=O)CN1CCOCC1 [Example 18]

>  <IC50>
9.9 µM

$$$$
>  <MOLECULE>
COC(=O)c1ccc(C(=O)Nc2nnc(-c3ccccc3)s2)cc1NC(=O)CN1CCN(C)CC1 [Example 105]

>  <IC50>
≥ 50 µM

$$$$
>  <MOLECULE>
COCc1ccc(C(=O)Nc2nnc(-c3ccccc3C)s2)cc1NC(=O)CN1CCOCC1 [Example 176]

>  <IC50>
≥ 50 µM

$$$$
>  <MOLECULE>
CN(C(=O)CN1CCOCC1)c1cc(C(=O)Nc2ccc(-c3ccccc3)nc2)ccc1OC(F)(F)F [Example 228]

>  <IC50>
29 µM

$$$$
>  <MOLECULE>
O=C(Nc1nnc(-c2ccc(F)cc2)s1)c1ccc(OC(F)(F)F)c(NC(=O)C2(N3CCOCC3)CC2)c1 [Example 90]

>  <IC50>
≥ 50 µM

$$$$
>  <MOLECULE>
O=C(CN1CCN(CC(F)F)CC1)Nc1cc(C(=O)Nc2ccc(-c3ccccc3F)nc2)ccc1OC(F)(F)F [Example 100]

>  <IC50>
≥ 50 µM

$$$$
>  <MOLECULE>
O=C(CN1CCOCC1)Nc1cc(NC(=O)c2ccc(-c3ccccc3)nc2)ccc1OC(F)(F)F [Example 33]

>  <IC50>
≥ 50 µM

$$$$
>  <MOLECULE>
NC(=O)c1ccc(C(=O)Nc2nnc(-c3ccccc3)s2)cc1NC(=O)C1(N2CCOCC2)CC1 [Example 56]

>  <IC50>
≥ 50 µM

$$$$
>  <MOLECULE>
CC1CN(CC(=O)Nc2cc(C(=O)Nc3nnc(-c4ccccc4)s3)ccc2OC(F)(F)F)CCN1C (stereo not shown) [Example 160]

>  <IC50>
28 µM

$$$$
>  <MOLECULE>
O=C(CN1CCOCC1)Nc1cc(C(=O)Nc2ccc(-c3ccccc3)nc2)ccc1OC(F)(F)F [Example 15]

>  <IC50>
≥ 50 µM

$$$$
>  <MOLECULE>
O=C(Nc1nnc(-c2ccccc2)s1)c1ccc(F)c(NC(=O)C2(N3CCOCC3)CC2)c1 [Example 78]

>  <IC50>
≥ 50 µM

$$$$
>  <MOLECULE>
O=C(CN1CC2CCC(C1)O2)Nc1cc(NC(=O)c2ccc(-c3cc(F)cc(F)c3)nc2)ccc1OC(F)(F)F [Example 216]

>  <IC50>
3.6 µM

$$$$
